System: SR leukemia
method_notes: NCI tumour cell line growth inhibition, 48 h; in the data active = GI50 below about 0.43 µM; inactive = the rest
Your response should consist of one outcome taken from T (active), F (inactive)

[
  {
    "compound": "COc1ccc(C2=NC(=O)NC2c2ccc(OC)cc2)cc1 (centres undefined)",
    "answer_label": "F"
  },
  {
    "compound": "C=C1C(=O)O[C@H]2[C@H]1CC/C(COC(=O)N[C@H]1C[C@H](O[C@H]3C[C@](O)(C(=O)CO)Cc4c(O)c5c(c(O)c43)C(=O)c3c(OC)cccc3C5=O)O[C@@H](C)[C@H]1O)=C\\CC[C@@]1(C)O[C@@H]21",
    "answer_label": "F"
  },
  {
    "compound": "Clc1ccc(/C=C/c2ccc3ccccc3n2)cc1",
    "answer_label": "F"
  },
  {
    "compound": "Nc1nc(N)c2cc(Sc3ccc4ccccc4c3)ccc2n1",
    "answer_label": "F"
  },
  {
    "compound": "Cc1cc(CCl)c(C)cc1CCl",
    "answer_label": "T"
  }
]

*Q* I would be grateful if you could indicate the recorded call for C=C1C(=O)O[C@H]2[C@H]1CC/C(COC(=O)NCc1ccc(Cn3c(=O)sn(CCCCC)c3=O)cc1)=C\CC[C@@]1(C)O[C@@H]21 .
*A* T

*Q* Could you please tell me the result logged for c1ccc(-c2nc3n(c2-c2ccc4c(c2)OCO4)CCC3)nc1 in this assay?
*A* F

*Q* Outcome? COc1cc([C@@H]2c3cc4c(cc3[C@H](OC(C)=O)[C@H]3COC(=O)[C@@H]23)OCO4)cc(OC)c1OC
*A* T

*Q* What did the test return for NC(=O)c1cccnc1 ?
*A* F

---

System: SNB-75 CNS
method_notes: NCI tumour cell line growth inhibition, 48 h; in the data active = GI50 below about 0.43 µM; inactive = the rest
Entry note: the call must match one of YES for active, NO for inactive

Below are worked cases with known answers.
[
  {
    "compound": "CN(Cc1ccc(F)cc1)c1ccc(CO)c(Cl)c1",
    "answer_label": "NO"
  },
  {
    "compound": "Cc1cc(CCl)c(C)cc1CCl",
    "answer_label": "NO"
  },
  {
    "compound": "Cc1ccc(S(=O)(=O)c2nc(-c3ccccc3)oc2S(C)(=O)=O)cc1",
    "answer_label": "NO"
  },
  {
    "compound": "COc1cc(C2=NN(C(C)=O)C(c3cc(OC)c(OC)c(OC)c3)C2)ccc1O (stereo unspecified)",
    "answer_label": "YES"
  },
  {
    "compound": "C/C(=C(/c1ccccc1)c1ccc(OCC(O)CNCCN2CCOCC2)cc1)c1ccccc1 (stereo unspecified)",
    "answer_label": "NO"
  }
]

Now take the following compound into account.
*Q* Which outcome was entered for the compound COc1cc(F)ccc1-c1cc(Nc2cc(CS(C)(=N)=O)ccn2)ncc1F (stereo unspecified) in this test?
*A* YES

---

Would you kindly list log10 TGI for each of these molecules?
System: OVCAR-5 ovarian
method_notes: NCI tumour cell line growth inhibition, 48 h
Kindly note that the scale is log10 and the underlying TGI is in µM.

[
  {
    "molecule": "c1cc2c3c(c1)c1cc4c(cc1c[n+]3CC2)OCO4",
    "log10 TGI": 1.40
  },
  {
    "molecule": "Oc1ccc(/C=C/c2cccc(/C=C/c3ccc(O)c(O)c3)n2)cc1O",
    "log10 TGI": 1.37
  },
  {
    "molecule": "CCCCCCCCCc1ccc(OCCOCCOCCOCCOCCOCCOCCOCCOCCO)cc1",
    "log10 TGI": 0.55
  },
  {
    "molecule": "CCOC(=O)C(=CNc1ccc(N(C2=NCC(C)S2)c2ccc(F)c(Cl)c2)cc1)C(=O)OCC (stereo unspecified)",
    "log10 TGI": 1.59
  }
]

Note: attention shifts to another entry.
According to the records, this molecule CC(=O)O[C@H]1CC[C@@]2(C)C(=CC[C@@H]3[C@@H]2CC[C@]2(C)c4c(n[nH]c4C)C[C@@H]32)C1 displays log10 TGI of 1.49
